Parameter koff: see the listing below.
- tested target: T1, cyno IL-33 N-His (cynomolgus monkey)
- T1 chain: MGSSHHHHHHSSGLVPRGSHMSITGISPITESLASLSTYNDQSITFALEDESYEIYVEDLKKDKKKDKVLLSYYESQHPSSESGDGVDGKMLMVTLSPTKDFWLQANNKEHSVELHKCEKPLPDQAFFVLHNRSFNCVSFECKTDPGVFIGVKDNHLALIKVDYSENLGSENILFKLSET
- method description: SPR Biacore T200, 37 C
// note: answer is a bare numeric in s⁻¹

Some solved cases for reference:
{"binder": "H4H9676P (antibody, V domains shown) VH: EVQLVESGGGLVQPGGSLRLSCSASGFTFSSYAMNWVRQAPGKGLEWVTAISGSGGGTYYADSVKGRFTISRDNSKNSLFLQLNSLRAEDTAVYYCAKQTYTSSWYGGFDIWGQGTMVTVSS VL: DIQMTQSPSSVSASVGDRVTITCRASQGFSSWLAWYQQIPGKAPKLLIYAASRLQSGVPSRFRGSGSGTDFTLTISSLQPEDFATYYCQQANSFPLTFGGGTKVEIK", "koff (s⁻¹)": 0.0111}
{"binder": "H4H9670P (antibody, V domains shown) VH: EVQLVESGGGLVQPGGSLRLSCAASGFTLSSYAMSWVRQAPGKGLEWVSAISGSGGSTYYADSVKGRFTISRDNSKNSLYLQLNSLRAEDTAVYYCAKTLYTTSWYGGFQHWGQGTLVTVSS VL: DIQMTQSPSSVSASIGDRVTITCRASQGISSWLAWYQQKPGKVPKLLIYAASSLQSGFPSRFSGSGSGTDFTLTISSLQPEDFATYYCQQTHSFPWTVGQGTKVEIK", "koff (s⁻¹)": 0.00221}

Now take the following binder into account.
[in] Indicate the recorded koff value for this binder: H4H9666P (antibody, V domains shown) VH: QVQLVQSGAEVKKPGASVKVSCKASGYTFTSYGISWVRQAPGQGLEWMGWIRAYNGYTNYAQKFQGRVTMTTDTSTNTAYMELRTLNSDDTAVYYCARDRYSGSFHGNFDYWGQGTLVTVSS VL: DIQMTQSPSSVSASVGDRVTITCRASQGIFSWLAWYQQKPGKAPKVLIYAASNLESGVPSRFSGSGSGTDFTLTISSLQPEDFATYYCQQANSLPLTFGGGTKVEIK
[out] 0.0139
